Quick record: IC50, Phosphoglycerate kinase 1 (Homo sapiens, UniProt P00558).
measure.name: IC50 (µM)

1. CCNc1nc2cc(Cl)c(C#CCOC(=O)CC)cc2nc1NCC    0.257

I = CCNc1nc2cc(OC)c(OC)cc2nc1Cl
II = COc1cc2nc(Br)c(NCCN3CCN(C)CC3)nc2cc1OC
III = CCNc1nc2cc(OC)c(OC)cc2nc1NCCCN1CCCC1
IV = CCNc1nc2cc(Cl)c(C#CCCCO)cc2nc1NCC
V = CCCCC#Cc1cc2nc(NCC)c(NCC)nc2cc1Cl
Sort by IC50, descending. A ranking is expressed here by listing the labels in the requested order.
II, I, III, V, IV
(II: 16.4 µM, I: 6.32 µM, III: 4.36 µM, V: 0.884 µM, IV: 0.042 µM)

Each recorded value in this set is attributed to ChEMBL document CHEMBL3727373.
